target: human seritonin transporter (Homo sapiens)
Sequence (P31645 whole entry): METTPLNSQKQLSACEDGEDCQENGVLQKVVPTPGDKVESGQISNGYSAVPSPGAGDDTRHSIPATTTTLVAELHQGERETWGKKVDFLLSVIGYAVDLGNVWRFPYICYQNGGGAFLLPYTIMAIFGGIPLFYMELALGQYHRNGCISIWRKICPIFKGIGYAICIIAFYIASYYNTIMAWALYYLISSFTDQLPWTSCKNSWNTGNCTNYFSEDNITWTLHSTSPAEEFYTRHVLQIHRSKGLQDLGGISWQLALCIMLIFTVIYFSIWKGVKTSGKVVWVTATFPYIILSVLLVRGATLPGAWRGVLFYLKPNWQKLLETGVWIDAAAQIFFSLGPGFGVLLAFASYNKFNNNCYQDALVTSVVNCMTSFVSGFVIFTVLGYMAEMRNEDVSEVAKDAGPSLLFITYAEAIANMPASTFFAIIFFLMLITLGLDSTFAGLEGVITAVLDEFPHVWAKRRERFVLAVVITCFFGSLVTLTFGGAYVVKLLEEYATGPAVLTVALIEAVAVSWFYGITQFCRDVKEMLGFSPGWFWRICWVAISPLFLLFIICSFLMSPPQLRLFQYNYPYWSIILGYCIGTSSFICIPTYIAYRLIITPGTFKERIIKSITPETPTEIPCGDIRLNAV
PROPERTY: Ki (µM)

Worked cases, Ki given:
CPD SMILES | ASSAYED TARGET | UNIT OF MEASURE | READOUT NUMBER
FC(F)(F)c1ccccc1O[C@@H](c1ccccn1)[C@@H]1CNCCO1 | human seritonin transporter (Homo sapiens) | µM | 9.06
CC(C)Oc1ccccc1O[C@@H](c1ccccc1)[C@@H]1CNCCO1 | human seritonin transporter (Homo sapiens) | µM | 5.63

(A) Fc1ccc(O[C@@H](c2ccccc2)[C@@H]2CNCCO2)c(F)c1
(B) CC(C)c1cccc(F)c1O[C@@H](c1ccccc1)[C@@H]1CNCCO1
*Q* Select one: A or B . Criterion: greater recorded Ki. Write down the label of the entry you select.
*A* B
(B: 5.34 µM, A: 0.66 µM)
